Hello, the source for this data is the supplement of paper PMC10567573, in case you need it.

B1: KRT33B (parent)
chain: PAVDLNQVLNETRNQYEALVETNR

Variants of: B1
Test: protein stability index of a GFP-peptide fusion (GPS, HEK-293T) (PSI 1-6); higher = more stable;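 note: lentivirally expressed fusions sorted by FACS into six bins by GFP to DsRed ratio, PSI derived from sequencing read proportions per bin multiplied by bin number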
Details: c terminus: a fixed tail appended
Consider the following variants; for each one, report its protein stability index.
Give bare numbers.

// for each variant below, give its protein stability index
1. N14T
2. R24Y
3. N10Q
4. E17Q
5. E21I
6. N6Y
7. V8S
8. Y16Q

1: 3.21; 2: 2.83; 3: 2.58; 4: 4.4; 5: 3.71; 6: 2.64; 7: 4.43; 8: 5.29

// for each variant below, give its protein stability index
1. P1S
2. N10W
3. R13K
4. E11P
5. L19P
6. N23S

1: 4.42; 2: 2.37; 3: 3.03; 4: 4.27; 5: 4.97; 6: 4.25

// for each variant below, give its protein stability index
1. T12I
2. T22V
3. L5K
4. T12R
5. E11N

[2.41, 1.57, 4.79, 4.89, 3.94]

# return recorded protein stability index for entry `Q15W`
2.86
